tested on: human airway epithelial cells (HAECs); assay: High-throughput sequencing (HTS) of miRNAs at four stages of differentiation of HAECs; conditions: HTS, ALI-WD
Experimental endpoint: Abundance (%), WD

Substance: hsa-miR-203: human miRNA, SEQ ID No. 19 (GUGAAAUGUUUAGGACCACUAG; expressed or natural sequence; listed as Homo sapiens)
Recorded value: 3.92

Substance: hsa-miR-17: human miRNA, SEQ ID No. 11 (CAAAGUGCUUACAGUGCAGGUAG; expressed or natural sequence; listed as Homo sapiens)
Recorded value: 0.50

Substance: hsa-miR-125a-5p: human miRNA, SEQ ID No. 3 (UCCCUGAGACCCUUUAACCUGUGA; expressed or natural sequence; listed as Homo sapiens)
Recorded value: 2.79

Substance: hsa-miR-92b: human miRNA, SEQ ID No. 49 (UAUUGCACUCGUCCCGGCCUCC; expressed or natural sequence; listed as Homo sapiens)
Recorded value: 1.77

Substance: hsa-miR-99a: human miRNA, SEQ ID No. 52 (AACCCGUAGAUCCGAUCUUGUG; expressed or natural sequence; listed as Homo sapiens)
Recorded value: 1.03
